Where do the numbers come from? From the NIST ThermoML archive (doi:10.1016/j.tca.2009.09.001).

# test.method.notes: Molar enthalpy of transition or fusion
# test.context: Crystal; DSC
readout.label: Molar enthalpy of transition or fusion (kcal/mol)
Quick note: give the figure in kcal/mol, leave out the unit.

Inquiry: Give recorded Molar enthalpy of transition or fusion. O=C(O)[C@H](O)[C@@H](O)C(=O)O [(2R,3R)-2,3-dihydroxybutanedioic acid]
Reply text: 5.35

Inquiry: Give me measured Molar enthalpy of transition or fusion, please, for this molecule: O[C@@H]1CCCC[C@H]1O (relative stereo) [trans-1,2-cyclohexanediol]
Reply text: 8.22

Inquiry: Let me know recorded Molar enthalpy of transition or fusion for O[C@H]1CCCC[C@@H]1O , thanks.
Reply text: 3.59

Inquiry: Given O[C@@H]1CCCC[C@H]1O [(1R,2R)-1,2-cyclohexanediol] , respond with its Molar enthalpy of transition or fusion.
Reply text: 4.3
